Please respond with reported TGI for every item in the list.
test system: A498 renal; assay: NCI tumour cell line growth inhibition, 48 h

Input `c1ccc(C/C(=N\Nc2nc3ccccc3[nH]2)c2ccccn2)cc1` , output reported TGI.
1.37 µM

Name the recorded TGI of the item `O=[N+]([O-])C(/C(Cl)=C(/Cl)N1CCOCC1)=C1\Nc2ccccc2O1` in your answer.
> 100 µM

Give TGI for the following compound: COc1cccc2c1C(=O)c1c(O)c3c(c(O)c1C2=O)C[C@@](O)(/C(C)=N/NC(=O)c1cccc([N+](=O)[O-])c1)C[C@@H]3OC1CC(N)C(O)C(C)O1 (some centres undefined)
2.23 µM

Return value of TGI for input `N#CSc1c[nH]c2ccc(/C=C/C(=O)/C=C(O)/C=C/c3ccc4[nH]cc(SC#N)c4c3)cc12` , no commentary.
55.4 µM

Dear colleague, please send me the reported TGI for `Cc1cc2c(cc1Cl)SC(=Nc1ccc(Cl)cc1)N(S(=O)(=O)c1ccc(Br)s1)S2(=O)=O` when you can.
26.2 µM

Fill in TGI for record `C/C(=C1\C(=O)Nc2ccccc21)c1cccc(/C(C)=C2/C(=O)Nc3ccccc32)n1`
34.8 µM

Tell me measured TGI for `COc1ccc(OC)c([N+](=O)[O-])c1-c1nc2sc(Cl)cn2c1/C=N/N=C(N)N` please.
33.7 µM

Note TGI for the compound shown: `CSC(=Nc1ccc([N+](=O)[O-])cc1C#N)NC(=O)c1ccccc1`
> 100 µM

Please give measured TGI of the following entry: `Clc1ccc(NCNC2Nc3ccccc3N2)cc1Cl`
> 100 µM

Give TGI for the following compound: `O=C(O)CSC1=NCCN1`
> 100 µM

Input `O=C(O)c1c2c(c(O)c3c1CN(C1CCCCC1)CO3)OCN(C1CCCCC1)C2` , output reported TGI.
> 100 µM

Tell me measured TGI for O=S(=O)(c1ccccc1)N1CCC1c1ccccc1 (centres undefined) please.
> 100 µM

Output TGI of `Cn1c2ccccc2n2c(=O)c(-c3ccc(Cl)cc3)nnc12`
> 100 µM

Quickly give me recorded TGI for `CCOc1cc2c(cc1OC)c[n+](C)c1c3cc(OC)c(OC)cc3ccc21`
> 100 µM

Retrieve TGI measured for COc1ccc(CC(C)NCC(O)c2ccc(O)c(NC=O)c2)cc1 (centres undefined) and print it.
> 100 µM

Give me measured TGI, please, for this compound: `COc1cc2c(c3nc4ccccc4nc13)-c1ccc(SC)c(=O)cc1[C@@H](NC(C)=O)CC2`
> 65.1 µM

Return value of TGI for input `CCO/C(O)=c1/s/c(=C2/SC(=S)N(c3ccc(C)cc3)C2=O)n(-c2ccccc2)c1=N` , no commentary.
> 100 µM

// Input: `C[C@]12CCC(=O)C=C1CC[C@@H]1[C@@H]2CC[C@]2(C)C(=O)/C(=C/c3ccc([N+](=O)[O-])cc3)C[C@@H]12` . Output its TGI only.
48.9 µM

For the compound `Cc1cc2c(cc1Cl)SSc1cc(Cl)c(C)cc1S(=O)(=O)Nc1nc(N)nn1C(O)n1nc(N)nc1NS2(=O)=O` , give its measured TGI value.
> 10 µM
